# EXPERIMENT SUMMARY: chemical genetic growth profiling, strain panel (AID 1159580);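 also: tested at 20 µM; growth read once vehicle control cultures reached saturation at 30 °C; 1 = growth at the plate median or of vehicle wells; lower values mean less growth of the strain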
# CONDITION DETAILS: S. cerevisiae deletion strains, growth OD, locus YMR125W, strain sto1, active compounds read low
In all, about 5,500 compounds went through this assay and about 2,000 (36%) were called active. Not shown: some 18% with an inconclusive outcome. This is one part of the list.
Let's look at some compounds and their measured normalized growth.
ATTRIBUTE MEASURED: normalized growth

COMPOUND | ATTRIBUTE MEASURED | READOUT VALUE
COC(=O)[C@@H]1OC(=O)[C@H]2O[C@@]23[C@@]1(C)CCC1[C@@]2(C)CCC(=O)C(C)(C)C2C[C@@H](OC(C)=O)[C@]13C (stereo partly specified) | normalized growth | 0.983
O=C1C=C2C=C[C@@H]3C[C@@]2(O1)[C@H]1CCCCN31 | normalized growth | 1
C[C@H]1COC2=C1C(=O)C(=O)c1c2ccc2c1CCCC2(C)C | normalized growth | 0.476
Cc1c(S(=O)(=O)O)oc2c1C(=O)C(=O)c1c-2ccc2c1CCCC2(C)C | normalized growth | 1
OC(Cn1cncn1)(Cn1cncn1)c1ccc(F)cc1F | normalized growth | 1.03
C#CCCCCCCCCCCCC(O)CC(O)COC(C)=O (stereo unspecified) | normalized growth | 0.908

###

# EXPERIMENT SUMMARY: chemical genetic growth profiling, strain panel (AID 1159580);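 also: tested at 20 µM; growth read once vehicle control cultures reached saturation at 30 °C; 1 = growth at the plate median or of vehicle wells; lower values mean less growth of the strain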
# CONDITION DETAILS: S. cerevisiae deletion strains, growth OD, locus YKL160W, strain elf1, active compounds read low
Counter-ions that a name gives are not always drawn. The whole screen tested about 5,500 compounds, of which about 2,000 (36%) were called active. Not shown: some 18% with an inconclusive outcome. This is one part of the list. Where a SMILES comes first, the peptide text is derived from it. The star is where a group is joined. Tfa = O=C(C(F)(F)F)*
Entries and their measured normalized growth follow.
ATTRIBUTE MEASURED: normalized growth

COMPOUND | READOUT VALUE
C=C1C(=O)O[C@@H]2C3O[C@]3(C)CC/C=C(\C)CC[C@@H]12 (stereo partly specified) | 0.946
CCOC(=O)Nc1nc2ccccc2[nH]1 | 0.985
COc1cc2occ(-c3ccccc3)c(=O)c2c(OC)c1C | 0.969
CC1C[C@H]2CC(=O)[C@H]3CCCN4CCC[C@H]2[C@]34C1 (stereo partly specified) | 1.02
CC(C)(Oc1ccc(C2CC2(Cl)Cl)cc1)C(=O)O (stereo unspecified) | 0.978
N[C@@H](CC(=O)N1CCn2c(nnc2C(F)(F)F)C1)Cc1cc(F)c(F)cc1F | 1.01
CC(C)C(NC(=O)C(Cc1ccc(O)cc1)NC(=O)C(NC(=O)C(F)(F)F)C(C)C)C(=O)O (stereo not drawn) (Tfa-Val-Tyr-Val-OH; configuration not given here) | 1
Cc1coc2c1C(=O)C(=O)c1c-2ccc2c1CCCC2(C)C | 0.886
COC(=O)C(O)c1ccccc1 (stereo unspecified) | 1.04
NC(CO)C(=O)NNCc1ccc(O)c(O)c1O (stereo unspecified) | 1.02
COc1ccc(-c2coc3cc(OC)cc(OC)c3c2=O)cc1 | 0.986
C[C@@H]1C(=O)OC2[C@H](O)C34[C@@H]5OC(=O)[C@@]3(O[C@@H]3OC(=O)[C@H](O)[C@@]34[C@H](C(C)(C)C)[C@H]5O)[C@]21O (stereo partly specified) | 0.981
CCCCN(CCCC)CCCOC(=O)c1ccc(N)cc1 | 0.995
C=C1C(=O)OC2CC1C(OC(C)=O)C/C(C)=C/CC/C(C)=C/CC[C@]2(C)O (stereo partly specified) | 0.982
Cc1c(S(=O)(=O)O)oc2c1C(=O)C(=O)c1c-2ccc2c1CCCC2(C)C | 0.896
O=C1CC2OCC=C3CN4CC[C@]56c7ccccc7N1C5[C@H]2[C@H]3CC46 (stereo partly specified) | 1.03
C[N+]1(C)C2CC(OC(=O)[C@@H](CO)c3ccccc3)CC1C1OC12 (stereo partly specified) | 0.955
CCCCOC(=O)c1ccccc1C(=O)OCCCC | 0.985
O=C(O)c1ccccc1-c1c2cc(Br)c(=O)cc-2oc2[c]([Hg])c(O)c(Br)cc12 | 0.0872
Cc1cc(NC(=O)C2=C(O)c3ccccc3S(=O)(=O)N2C)no1 | 0.996
OC(Cn1cncn1)(Cn1cncn1)c1ccc(F)cc1F | 0.992
COC(=O)C(C)c1ccc(C(=O)c2cccs2)cc1 (stereo unspecified) | 1
COC(=O)[C@@H]1OC(=O)[C@H]2O[C@@]23[C@@]1(C)CCC1[C@@]2(C)CCC(=O)C(C)(C)C2C[C@@H](OC(C)=O)[C@]13C (stereo partly specified) | 1.07
O=C(O)CN(CC(=O)O)Cc1cc2c(-c3ccccc3C(=O)O)c3cc(CN(CC(=O)O)CC(=O)O)c(=O)cc-3oc2cc1O | 0.96
Cc1c(Cl)cccc1Nc1ccccc1C(=O)O | 0.764
Clc1cccc(Cl)c1NC1=NCCN1 | 0.951
Cc1ccc(C)c(OCCCC(C)(C)C(=O)O)c1 | 0.968
CC1(C)NC(=O)N(c2ccc([N+](=O)[O-])c(C(F)(F)F)c2)C1=O | 0.988
CCOC(=O)[C@H](CCc1ccccc1)N[C@@H](C)C(=O)N1[C@H](C(=O)O)C[C@@H]2CCC[C@@H]21 | 0.981
CC(C)C(=O)Nc1ccc([N+](=O)[O-])c(C(F)(F)F)c1 | 1
CCCOc1ccc(C(=O)OCCN(CC)CC)cc1N | 0.989
COc1cc(OC)c2c(=O)c(-c3ccccc3)coc2c1 | 0.93
CCNC(=O)CC[C@H](N)C(=O)O | 0.999
Nc1nc2ncc(=O)[nH]c2c(=O)[nH]1 | 0.975
Cc1cccc(Nc2ccccc2C(=O)O)c1C | 0.921
Cc1cccc(C)c1NC1=NCCCS1 | 1
CC1OC1P(=O)(O)O (stereo unspecified) | 0.971
CC(C(=O)O)c1ccc(C(=O)c2cccs2)cc1 (stereo unspecified) | 0.992
CCCCOC(=O)c1ccc(N)cc1 | 0.875
Cc1ccc(Cl)c(Nc2ccccc2C(=O)O)c1Cl | 0.824
CCCCNc1ccc(C(=O)OCCN(C)C)cc1 | 1.03
C=C1C(=O)O[C@@H]2C[C@@]3(C)CCC[C@H](C)C3=C[C@H]12 | 0.78
CCCCC(=O)Oc1ccccc1C(=O)O | 0.962
CO[C@@]1(NC(=O)CSCC#N)C(=O)N2C(C(=O)O)=C(CSc3nnnn3C)CSC21 (stereo partly specified) | 0.959
CC(=O)Oc1c(C)cccc1C(=O)O | 0.994
CCCCCCOc1ccccc1C(N)=O | 0.883

All values here come from PubChem BioAssay AID1159580.
